test: NCI Yeast Anticancer Drug Screen. Data for the bub3 strain (AID 167); settings: S. cerevisiae bub3 mutant strain, at 50.0 µM, hits give high values
About 79,000 compounds went through this panel and 15% of them were active in at least one assay; those are over-represented in the sample as a whole.
endpoint name: growth inhibition (%)
Hi! Could you send only the number? It should be in %, unit omitted.

Give growth inhibition for the following compound: COC(=O)/C(=N\N)C(C(=O)C(=O)Nc1cc(Cl)ccc1Cl)c1nc2ccc([N+](=O)[O-])cc2[nH]c1=O (stereo not given)
25.9

Tell me measured growth inhibition for Nc1c(F)c(F)cc(F)c1[N+](=O)[O-] please.
9.6

Please give measured growth inhibition of the following entry: CC1CCCCN1C(CC(=O)c1ccccc1)C(=O)c1ccccc1 (stereo not given)
18.4

Check the records and state growth inhibition for Cn1c(=O)c2[nH]c([N+](=O)[O-])nc2n(C)c1=O
-20.1

State its growth inhibition: O=C(OCCCCO)c1cc([N+](=O)[O-])cc([N+](=O)[O-])c1
12.1

Tell us which growth inhibition value is on record for CC(=O)c1ccc(O)c(CN(C2CCCCC2)C2CCCCC2)c1O
-18

For the compound CN(C)c1ccc(/C=N/NC(=O)NN)cc1 , report growth inhibition.
-2.15

# return recorded growth inhibition for entry Cc1ccccc1C1(O)c2cccc3cccc(c23)C1(O)c1ccccc1C (stereo not given)
10.9

Answer with reported growth inhibition of COc1ccc(Cc2cc(N=O)c(OC)cc2O)cc1
-3.6

Identify growth inhibition associated with the compound COC(=O)/C=C/C(=O)OC
9.45

Output measured growth inhibition for this item: C1CCC2C(C1)CCCC2CC1CCCC2CCCCC21 (stereo not given)
-9.05

Specify growth inhibition for Oc1cc2c(cc1O)-c1[nH]ncc1CC2 and stop.
4.55

Complete the entry with growth inhibition for COc1ccc(-n2c(N)c(C#N)c(C#N)c2-c2ccco2)cc1
-25.4

Identify measured growth inhibition associated with NC(=O)/N=C/c1c(O)c2ccccc2oc1=O
-42

State, in one line, measured growth inhibition of CCC1(C)C(=O)c2ccccc2N(C)C1=O (stereo not given)
5

Could you please provide reported growth inhibition for CN(c1ncc(Cc2cnc(N(C)C3CCN(Cc4ccccc4)CC3)nc2)cn1)C1CCN(Cc2ccccc2)CC1 ? Thanks!
-2.95

// Input: O=C1CC(O)(c2ccccc2)C(c2ccccc2)=C1c1ccccc1 (stereo not given) . Output its growth inhibition only.
-2.15

Please report the measured growth inhibition for COc1cc2c(c([N+](=O)[O-])c1)NC(=O)CC(C)S2 (stereo not given)
17.4

Write down growth inhibition measured for item CCOC(=O)c1c(-c2ccc(OC)cc2)c(C#N)c(=S)n(C2OC(CO)C(O)C(O)C2O)c1C (stereo not given)
22.4

Provide one value: measured growth inhibition of Nc1cc(=O)n(-c2ccccc2)nc1Cl
3.1

Tell us which growth inhibition value is on record for CN(C)C(=O)c1ccc(-c2ccccc2)cc1O
-10.1

Look up and report measured growth inhibition for this entry: ClCCOCc1ccc(Cl)cc1Cl
-3.7

Fill in growth inhibition for record O=c1[nH]c(Br)nc2c(Br)c[nH]c12
-22.2

For O=[N+]([O-])c1ccc(Oc2ccc(S(=O)(=O)O)cc2)cc1 , write its growth inhibition.
6.6

Could you please provide reported growth inhibition for O=C(COc1ccc(Cl)c(Cl)c1)NCc1cccc(NC(=O)CBr)c1 ? Thanks!
99.2
